- target.desc: T1, clathrin TD, N-terminal domain of the clathrin heavy chain (aa 1-363) (UniProt P49951 1-363)
- T1 sequence (looked up): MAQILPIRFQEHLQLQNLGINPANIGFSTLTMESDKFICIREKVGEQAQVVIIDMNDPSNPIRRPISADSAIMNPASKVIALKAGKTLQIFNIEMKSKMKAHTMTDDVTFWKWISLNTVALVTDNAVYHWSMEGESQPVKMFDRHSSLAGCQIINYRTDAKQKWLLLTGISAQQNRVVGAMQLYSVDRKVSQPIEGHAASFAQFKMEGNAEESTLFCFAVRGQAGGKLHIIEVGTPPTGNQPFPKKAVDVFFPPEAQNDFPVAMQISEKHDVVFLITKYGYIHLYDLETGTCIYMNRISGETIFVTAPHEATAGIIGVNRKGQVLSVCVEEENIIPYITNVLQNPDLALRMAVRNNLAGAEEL
- test.name: AUC
No end group written: not given here. Alexa 488 = Alexa Fluor 488 dye
What pKd was measured for each of the following?
Please note pKd is a logarithmic value: minus log10 of concentration in mol/L. Answer with that number alone.

Documented pKd of AP180 M5 site 2 (residues 639-642 to alanines), fluorescently labelled for AUC (domain or fragment) {Alexa 488}-ASTASPAK(Alexa 488)AESSGVIDAAAAAFGSGASETQPAPQAVSSSSASADLLAGFGGSFMAPST : 3.60

Documented pKd of Alexa488-AP180 M5 (aa 623-680), wild type, fluorescently labelled (domain or fragment) {Alexa 488}-ASTASPAK(Alexa 488)AESSGVIDLFGDAFGSGASETQPAPQAVSSSSASADLLAGFGGSFMAPST : 3.76

Documented pKd of AP180 M5 site 1 (residues 667-668 to alanines), fluorescently labelled for AUC (domain or fragment) {Alexa 488}-ASTASPAK(Alexa 488)AESSGVIDLFGDAFGSGASETQPAPQAVSSSSASADAAAGFGGSFMAPST : 3.60
